Hey, just so you know, these numbers are from paper PMC8508980.

target: V600EBRAF (Homo sapiens, UniProt P15056, V600E); assay: Reaction Biology kinase HotSpot enzyme assay; settings: 1 µM ATP; mean ± S.D. of two separate experiments
Sequence (P15056 whole entry V600E): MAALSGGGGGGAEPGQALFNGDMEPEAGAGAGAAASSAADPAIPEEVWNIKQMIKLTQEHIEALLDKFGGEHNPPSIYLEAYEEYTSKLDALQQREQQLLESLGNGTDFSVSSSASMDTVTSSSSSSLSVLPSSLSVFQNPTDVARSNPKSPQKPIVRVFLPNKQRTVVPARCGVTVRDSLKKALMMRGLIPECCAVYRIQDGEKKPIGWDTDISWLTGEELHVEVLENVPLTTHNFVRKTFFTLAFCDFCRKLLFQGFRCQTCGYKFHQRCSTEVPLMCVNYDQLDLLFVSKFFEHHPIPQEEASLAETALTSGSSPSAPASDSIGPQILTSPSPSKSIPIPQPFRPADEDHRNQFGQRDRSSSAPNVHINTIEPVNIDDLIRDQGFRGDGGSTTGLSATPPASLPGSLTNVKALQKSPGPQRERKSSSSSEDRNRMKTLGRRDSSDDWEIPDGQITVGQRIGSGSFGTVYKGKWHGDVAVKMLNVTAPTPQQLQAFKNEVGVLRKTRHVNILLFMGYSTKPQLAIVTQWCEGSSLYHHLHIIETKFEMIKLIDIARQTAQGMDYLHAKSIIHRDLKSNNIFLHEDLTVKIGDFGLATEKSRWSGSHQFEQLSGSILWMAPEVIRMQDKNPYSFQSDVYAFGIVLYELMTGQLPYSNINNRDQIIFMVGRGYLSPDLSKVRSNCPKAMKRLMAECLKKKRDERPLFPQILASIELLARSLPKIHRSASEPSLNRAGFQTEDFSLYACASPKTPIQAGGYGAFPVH
Can you tell me pIC50 for the items I'm about to list?
Lab note: report pIC50 as minus log10 of the concentration in molar units, number only.

QUERY: Recall the recorded pIC50 for O=S(=O)(NCCNc1nccc(-n2cnc3ccccc32)n1)c1ccc(Cl)cc1 [12c] with V600EBRAF (Homo sapiens, UniProt P15056, V600E) and state it.
RESULT: 6.09

QUERY: Recall the recorded pIC50 for O=S(=O)(NCCCNc1nccc(-n2cnc3ccccc32)n1)c1ccc(Cl)cc1 [12j] with V600EBRAF (Homo sapiens, UniProt P15056, V600E) and state it.
RESULT: 6.10

QUERY: Recall the recorded pIC50 for O=S(=O)(NCCNc1nccc(-n2cnc3ccccc32)n1)c1ccccc1 [12a] with V600EBRAF (Homo sapiens, UniProt P15056, V600E) and state it.
RESULT: 5.72

QUERY: Recall the recorded pIC50 for O=S(=O)(NCCCNc1nccc(-n2cnc3ccccc32)n1)c1cccc2ccccc12 [12n] with V600EBRAF (Homo sapiens, UniProt P15056, V600E) and state it.
RESULT: 5.89

QUERY: Recall the recorded pIC50 for O=S(=O)(NCCCNc1nccc(-n2cnc3ccccc32)n1)c1ccccc1 [12h] with V600EBRAF (Homo sapiens, UniProt P15056, V600E) and state it.
RESULT: 5.95
